Molecular target: human D2 receptors (Homo sapiens (Human), UniProt P14416)
Sequence (P14416 whole entry): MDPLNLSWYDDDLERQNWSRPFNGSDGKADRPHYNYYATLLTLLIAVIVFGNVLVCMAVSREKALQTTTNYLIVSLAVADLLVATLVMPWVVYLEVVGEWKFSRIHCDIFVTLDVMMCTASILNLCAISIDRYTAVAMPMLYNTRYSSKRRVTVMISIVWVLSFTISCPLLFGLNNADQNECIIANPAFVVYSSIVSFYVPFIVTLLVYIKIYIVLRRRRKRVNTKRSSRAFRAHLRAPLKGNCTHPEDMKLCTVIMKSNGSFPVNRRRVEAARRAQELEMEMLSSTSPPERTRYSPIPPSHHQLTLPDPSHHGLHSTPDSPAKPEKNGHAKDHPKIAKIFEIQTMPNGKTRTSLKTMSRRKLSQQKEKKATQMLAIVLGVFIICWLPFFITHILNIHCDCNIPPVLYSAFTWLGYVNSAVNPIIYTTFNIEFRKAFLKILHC
Assay: D2 Mitogenesis Functional Assay (3H-thymidine uptake, CHOp-D2 cells)
Type: cell-based
Conditions: at 10 μM; % maximum stimulation vs quinpirole (100%); read-out: D2 Agonist Emax
The entries below come with measured Emax at 10 µM values attached.

# example entries with known answers
chem_smiles: CC(C)(C)c1nc(N2CCN(CCCCNC(=O)N3CCN(c4ccccn4)CC3)CC2)cc(C(F)(F)F)n1
Emax at 10 µM: < 1%
--
chem_smiles: CC(C)(C)c1nc(N2CCN(CCCCNC(=O)c3cn4cccnc4n3)CC2)cc(C(F)(F)F)n1
Emax at 10 µM: < 1%

Look up Emax at 10 µM: O=C(NCCCCN1CCN(c2cccc(Cl)c2Cl)CC1)N1CCN(c2ccccc2)CC1 < 20%

Requested read-out: Emax at 10 µM. Entry: O=C(NCCCCN1CCN(c2cccc(Cl)c2Cl)CC1)N1CCC(c2ccccc2)CC1 < 20%

Source of measurements: patent US9598387B2
